system: A549; experiment: NCI tumour cell line growth inhibition, 48 h
Calls of active or inactive are those of the source. Rule as the data show it: active = GI50 up to about 1.1 µM and inactive = higher.
Measured Property: GI50

molecule=C[C@@]1(OC(=O)c2cc([N+](=O)[O-])cc([N+](=O)[O-])c2)C[C@@H]2CCCC[C@@H]21 measured_property=GI50 recorded_value="> 100 µM (inactive)"

Turning now to a further molecule:
In: Please look up its GI50: `O=S1(=O)c2ccccc2N(c2ccccc2)c2nnnn21`
Out: 33.4 µM (inactive)

* * *

tested on: OVCAR-8; experiment: NCI tumour cell line growth inhibition, 48 h
The source made the active and inactive calls. No stated cut-off is given here; in the data, active = GI50 up to about 1.1 µM and inactive = higher. Positions of bridges follow the written chain, without caps; N, C: chain ends. Non-standard residues stand in square brackets, D forms with d. Residues, ends and D or L forms follow the SMILES beside them. *: point of attachment. Cbz = O=C(OCc1ccccc1)*; Aib = CC(C)(N)C(=O)O; OBn = c1ccc(CO*)cc1; βAla = NCCC(=O)O
The reply should name one outcome from 1 (yes) for active, 0 (no) for inactive

Worked set:
molecule="CC1(C)NC(=O)C(NC(=O)C(CC(=O)OCc2ccccc2)NC(=O)OCc2ccccc2)CCCCNC(=O)CCNC1=O (stereo not given) (Cbz-D(OBn)K[Aib][βAla]; lactam 2-C; configuration not given here)" class_name="0 (no)"
molecule=COc1ccc2c(c1[N+](=O)[O-])CC[C@@H]1[C@@H]2CC[C@]2(C)C(=O)CC[C@@H]12 class_name="0 (no)"
molecule=CCOC(=O)C(CCc1ncnc2c1ncn2Cc1ccccc1)(CCc1ncnc2c1ncn2Cc1ccccc1)C(=O)OCC class_name="0 (no)"
molecule=CCN(CC)C(=O)c1c(Cl)cc(N(CC)CC)oc1=O class_name="0 (no)"
molecule="NC(CCOCCP(=O)(O)CCC1C=CC=CC1)C(=O)O (stereo not given)" class_name="0 (no)"

Consider the record given below.
In: So what was the verdict on `COc1ccc(OC)c(/C=C/c2ccnc3ccccc23)c1` in this test?
Out: 1 (yes)
